Biological target: human CCR6 (Homo sapiens, UniProt P51684)
Experiment: Human CCR6-CRE reporter assay
Format: cell-based
Set-up: The second construct contained the open reading frame of human CCR6 in the pUNO1 backbone; host or cells: 293FT cells
Conditions: relative -Log IC50; 293FT cells transfected with human CCR6 and CRE-luciferase reporter; 6 μM Forskolin, 6 nM CCL20; 5 h
pIC50: −log10 of the molar value.
Catalogue of pIC50 values
property.label: pIC50

1. N=S(=O)(c1ccc(-c2ccc3nccn3c2)cc1)[C@H]1CC[C@H](Nc2ccc(S(F)(F)(F)(F)F)cc2)CC1 (stereo partly drawn) [Example 87]; 6.70
2. O=S(=O)(c1ccc(-c2ccc3nnc(C4CNC4)n3c2)cc1)N1CCC(Nc2ccc(S(F)(F)(F)(F)F)cc2)CC1 [Example 167]; 6.60
3. N=S(=O)(c1ccc(-c2ccc3c(c2)CCNC3=O)cc1)[C@H]1CC[C@H](Nc2ccc(S(F)(F)(F)(F)F)cc2)CC1 (stereo partly drawn) [Example 113]; 6.50
4. O=S(=O)(c1ccc(-c2ccc3nccn3c2)cn1)N1CCC(Nc2ccc(S(F)(F)(F)(F)F)cc2)CC1 [Example 75]; 6.00
5. CC(C)c1cnc2ccc(-c3ccc(S(=N)(=O)[C@H]4CC[C@H](Nc5ccc(S(F)(F)(F)(F)F)cc5)CC4)cc3)cn12 (relative stereo) [Example 118]; 7.10
6. N=S(=O)(c1ccc(-c2ccnc(C(N)=O)c2)cc1)N1CCC(Nc2ccc(S(F)(F)(F)(F)F)cc2)CC1 (stereo not drawn) [Example 125]; 6.70

---

Biological target: human CCR6 (Homo sapiens)
Test: CHO-K1 CCR6 chemotaxis assay towards CCL20
Assay type: cell-based
Details: relative -Log IC50; CHO-K1 cells overexpressing human CCR6; migration towards 100 ng/ml CCL20; 4 h
pIC50: −log10 of the molar value.
property.label: pIC50

1) O=S(=O)(c1ccc(-c2ccc3nccn3c2)cc1)N1CCC(Nc2ccc(S(F)(F)(F)(F)F)cc2)CC1; 7.10
2) CC(C)c1nnc2cnc(-c3ccc(S(=N)(=O)[C@H]4CC[C@H](Nc5ccc(S(F)(F)(F)(F)F)cc5)CC4)cc3)cn12 (stereo partly shown); 7.20
3) O=c1[nH]nc2ccc(-c3ccc(S(=O)(=O)[C@H]4CC[C@H](Nc5ccc(S(F)(F)(F)(F)F)cc5)CC4)cc3)cn12; 7.40
4) CNC(=O)c1cc(-c2ccc(S(=O)(=O)N3CCC(Nc4ccc(S(F)(F)(F)(F)F)cc4)CC3)cc2)ccc1F; 7.70
5) O=S(=O)(c1ccc(-c2ccc3nnc(C(F)F)n3c2)cc1)[C@H]1CC[C@H](Nc2ccc(S(F)(F)(F)(F)F)cc2)CC1; 8.00
6) CNC(=O)c1ccc(-c2ccc(S(=N)(=O)[C@H]3CC[C@H](Nc4ccc(S(F)(F)(F)(F)F)cc4)CC3)cc2)cc1 (stereo partly shown); 6.30
7) N=S(=O)(c1ccc(-c2cccc(C(N)=O)c2)cc1)[C@H]1CC[C@H](Nc2ccc(S(F)(F)(F)(F)F)cc2)CC1 (stereo partly shown); 6.30
8) O=C1NCCc2cc(-c3ccc(S(=O)(=O)[C@H]4CC[C@H](Nc5ccc(S(F)(F)(F)(F)F)cc5)CC4)cc3)ccc21; 7.50
9) N=S(=O)(c1ccc(-c2ccc3nccn3c2)cc1)[C@H]1CC[C@H](Nc2ccc(S(F)(F)(F)(F)F)cc2)CC1 (single isomer, unassigned; (-)) [Example 129]; 6.50
10) O=S(=O)(c1ccc(-c2cn3ccnc3cn2)cc1)N1CCC(Nc2ccc(S(F)(F)(F)(F)F)cc2)CC1; 6.30
11) Nc1cc(-c2ccc(S(=O)(=O)[C@H]3CC[C@H](Nc4ccc(S(F)(F)(F)(F)F)cc4)CC3)cc2)cn2ccnc12; 7.90
12) Cc1[nH]nc2ccc(-c3ccc(S(=O)(=O)[C@H]4CC[C@H](Nc5ccc(S(F)(F)(F)(F)F)cc5)CC4)cc3)cc12; 7.60
13) NC(=O)c1cc(-c2ccc(S(=O)(=O)[C@H]3CC[C@H](Nc4ccc(S(F)(F)(F)(F)F)cc4)CC3)cc2)ccn1; 8.30

---

Reported pIC50 values for the following compounds.
Molecular target: UniProt:P51684
Sequence (P51684 1-374): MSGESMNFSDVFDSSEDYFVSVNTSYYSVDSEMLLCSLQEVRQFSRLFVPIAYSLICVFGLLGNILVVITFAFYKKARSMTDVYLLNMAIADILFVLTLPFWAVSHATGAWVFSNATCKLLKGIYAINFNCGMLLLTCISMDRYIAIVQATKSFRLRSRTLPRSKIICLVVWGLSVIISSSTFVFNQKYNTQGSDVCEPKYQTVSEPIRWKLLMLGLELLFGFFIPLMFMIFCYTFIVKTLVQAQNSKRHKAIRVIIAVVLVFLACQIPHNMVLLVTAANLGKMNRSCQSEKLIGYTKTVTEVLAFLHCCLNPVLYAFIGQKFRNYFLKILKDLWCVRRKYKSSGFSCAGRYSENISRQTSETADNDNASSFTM
Assay: Human CCR6-CRE reporter assay
Format: cell-based
Design: The second construct contained the open reading frame of human CCR6 in the pUNO1 backbone; host or cells: 293FT cells
Settings: relative -Log IC50; 293FT cells transfected with human CCR6 and CRE-luciferase reporter; 6 μM Forskolin, 6 nM CCL20; 5 h
pIC50: −log10 of the molar value.
property.label: pIC50

1) O=C1Cc2ccc(-c3ccc(S(=O)(=O)[C@H]4CC[C@H](Nc5ccc(S(F)(F)(F)(F)F)cc5)CC4)cc3)cc2CN1; 7.10
2) Cc1cn2cc(-c3ccc(S(=O)(=O)[C@H]4CC[C@H](Nc5ccc(S(F)(F)(F)(F)F)cc5)CC4)cc3)ncc2n1; 6.80
3) O=c1[nH]nc2ccc(-c3ccc(S(=O)(=O)[C@H]4CC[C@H](Nc5ccc(S(F)(F)(F)(F)F)cc5)CC4)cc3)cn12; 7.20

---

Target: human CCR6 (Homo sapiens)
Assay: CHO-K1 CCR6 chemotaxis assay towards CCL20
Assay type: cell-based
Details: relative -Log IC50; CHO-K1 cells overexpressing human CCR6; migration towards 100 ng/ml CCL20; 4 h
Exam item: assign yes (1) to entries whose IC50 is below 50 nM and no (0) to entries at or above 50 nM. Note that a value of exactly 50 nM receives no (0).

1. NC(=O)c1cc(-c2ccc(S(=O)(=O)[C@H]3CC[C@H](Nc4ccc(S(F)(F)(F)(F)F)cc4)CC3)cc2)cn2ccnc12; yes (1)
2. Cc1nnc2ccc(-c3ccc(S(=N)(=O)[C@H]4CC[C@H](Nc5ccc(S(F)(F)(F)(F)F)cc5)CC4)cc3)cn12 (some centres unmarked); no (0)
3. NC(=O)c1nnc2ccc(-c3ccc(S(=O)(=O)N4CCC(Nc5ccc(S(F)(F)(F)(F)F)cc5)CC4)cc3)cn12; no (0)
4. N#Cc1cnc2ccc(-c3ccc(S(=O)(=O)N4CCC(Nc5ccc(S(F)(F)(F)(F)F)cc5)CC4)cn3)cn12; no (0)
5. NC(=O)c1cc(-c2ccc(S(=O)(=O)N3CCC(Nc4ccc(S(F)(F)(F)(F)F)cc4)CC3)cc2)ccn1; no (0)
6. CN(C)C(=O)c1cccc(-c2ccc(S(=O)(=O)[C@H]3CC[C@H](Nc4ccc(S(F)(F)(F)(F)F)cc4)CC3)cc2)c1; no (0)
7. Cc1nc2cc(-c3ccc(S(=O)(=O)[C@H]4CC[C@H](Nc5ccc(S(F)(F)(F)(F)F)cc5)CC4)cc3)ccn2n1; no (0)
8. N#Cc1c[nH]c2ccc(-c3ccc(S(=N)(=O)[C@H]4CC[C@H](Nc5ccc(S(F)(F)(F)(F)F)cc5)CC4)cc3)cc12 (some centres unmarked); no (0)
9. O=C1NCCCn2cc(-c3ccc(S(=O)(=O)[C@H]4CC[C@H](Nc5ccc(S(F)(F)(F)(F)F)cc5)CC4)cc3)cc21; yes (1)
10. CC(C)c1cnc2ccc(-c3ccc(S(=N)(=O)[C@H]4CC[C@H](Nc5ccc(S(F)(F)(F)(F)F)cc5)CC4)cc3)cn12 (relative stereo); no (0)
11. CC(C)c1nnc2ccc(-c3ccc(S(=O)(=O)[C@H]4CC[C@H](Nc5ccc(S(F)(F)(F)(F)F)cn5)CC4)cc3)cn12; yes (1)
12. O=C1NCCc2sc(-c3ccc(S(=O)(=O)[C@H]4CC[C@H](Nc5ccc(S(F)(F)(F)(F)F)cc5)CC4)cc3)cc21; yes (1)
13. N=S(=O)(c1ccc(-c2ccc3nnc(C(F)F)n3c2)cc1)[C@H]1CC[C@H](Nc2ccc(S(F)(F)(F)(F)F)cc2)CC1 (some centres unmarked); no (0)
14. Cc1cnc2ccc(-c3ccc(S(=O)(=O)[C@H]4CC[C@H](Nc5ccc(S(F)(F)(F)(F)F)cc5)CC4)cc3)cn12; yes (1)
15. N#Cc1cnc2ccc(-c3ccc(S(=N)(=O)[C@H]4CC[C@H](Nc5ccc(S(F)(F)(F)(F)F)cc5)CC4)cc3)cn12 (some centres unmarked); no (0)
16. O=S(=O)(c1ccc(-c2ccc3nccn3c2)cc1F)N1CCC(Nc2ccc(S(F)(F)(F)(F)F)cc2)CC1; no (0)
17. NC(=O)c1n[nH]c2ccc(-c3ccc(S(=O)(=O)[C@H]4CC[C@H](Nc5ccc(S(F)(F)(F)(F)F)cc5)CC4)cc3)cc12; yes (1)
18. O=S(=O)(c1ccc(-c2ccc3nccn3c2)cc1)[C@H]1CC[C@H](Nc2ccc(S(F)(F)(F)(F)F)cn2)CC1; yes (1)
19. O=C1Cc2cc(-c3ccc(S(=O)(=O)[C@H]4CC[C@H](Nc5ccc(S(F)(F)(F)(F)F)cc5)CC4)cc3)ccc2N1; no (0)
20. N#Cc1cnc2ccc(-c3ccc(S(=O)(=O)[C@H]4CC[C@H](Nc5ccc(S(F)(F)(F)(F)F)cc5)CC4)cc3)cn12; yes (1)
21. CNC(=O)c1ccc(-c2ccc(S(=O)(=O)N3CCC(Nc4ccc(S(F)(F)(F)(F)F)cc4)CC3)cc2)cc1F; yes (1)
22. COCc1nnc2ccc(-c3ccc(S(=O)(=O)N4CCC(Nc5ccc(S(F)(F)(F)(F)F)cc5)CC4)cc3)cn12; no (0)
23. N#Cc1cnc2ccc(-c3ccc(S(=O)(=O)N4CCC(Nc5ccc(S(F)(F)(F)(F)F)cc5)CC4)c(F)c3)cn12; no (0)
24. NC(=O)c1ccc(-c2ccc(S(=O)(=O)[C@H]3CC[C@H](Nc4ccc(S(F)(F)(F)(F)F)cc4)CC3)cc2)nc1; no (0)
25. N#Cc1nnc2ccc(-c3ccc(S(=O)(=O)[C@H]4CC[C@H](Nc5ccc(S(F)(F)(F)(F)F)cc5)CC4)cc3)cn12; yes (1)
